test: NCI Yeast Anticancer Drug Screen. Data for the sgs1 mgt1 strain (AID 161);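 further: 0% = growth of cultures given vehicle only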; conditions: S. cerevisiae sgs1 mgt1 strain, at 50.0 µM, hits give high values
The panel holds about 79,000 compounds, 15% with a hit somewhere; the sample as a whole holds those more often.
endpoint.name: growth inhibition (%)
Kindly provide the numeric value in % only, without the unit symbol.

Inquiry: Requested field: growth inhibition. Item: CCCc1cc(C(=O)OCC)cc(CCC)c1O
Reply text: 79.3

Inquiry: Here is the next compound: CCOC(=O)c1cc(-c2ccc(Cl)cc2)c([N+](=O)[O-])n1C
Reply text: 91.7

Inquiry: Same for O=C(NCCCCCCCN1CCCCCCC1)C(C1CCCCC1)C1CCCCC1
Reply text: 99

Inquiry: Note, next up: O=C1C(Nc2ccccc2)=C(Oc2ccccc2)C(=O)c2ccccc21
Reply text: 16.4

Inquiry: Another: C[C@H](CCC(=O)NN)[C@H]1CC[C@H]2[C@@H]3CC[C@@H]4C[C@H](O)CC[C@]4(C)[C@H]3CC[C@]12C
Reply text: 35.3

Inquiry: Follow-up entry: CC(O)C(O)C(O)C(/C=N\Nc1ccccc1)=N/Nc1ccccc1 (stereo unspecified)
Reply text: 95.5

Inquiry: Same read-out for CCCCCCCCCC/C=C\C(=O)O ?
Reply text: 88.5

Inquiry: And then CCc1ccc(NS(=O)(=O)c2ccccc2)c([N+](=O)[O-])c1 , what is it?
Reply text: 70.7

Inquiry: Next up: O=[N+]([O-])c1cc2no[n+]([O-])c2cc1N1CCCCC1
Reply text: 92.4

Inquiry: Here is the next compound: Nc1ccccc1CC(O)C(=O)O (stereo unspecified)
Reply text: 94.5

Inquiry: Same thing, different compound: CC[C@@]1(O)C(=O)OCc2c1cc1n(c2=O)Cc2cc3c(N)cccc3nc2-1
Reply text: 19.9
